target: PolQ ATPase enzyme (1-894) (Homo sapiens (Human), UniProt O75417); assay: Polθ ATPase enzymatic assay (0.5 nM enzyme concentration), ADP-Glo; format: biochemical; conditions: 0.5 nM PolQ ATPase enzyme (1-894); average IC50
Sequence (O75417 1-894): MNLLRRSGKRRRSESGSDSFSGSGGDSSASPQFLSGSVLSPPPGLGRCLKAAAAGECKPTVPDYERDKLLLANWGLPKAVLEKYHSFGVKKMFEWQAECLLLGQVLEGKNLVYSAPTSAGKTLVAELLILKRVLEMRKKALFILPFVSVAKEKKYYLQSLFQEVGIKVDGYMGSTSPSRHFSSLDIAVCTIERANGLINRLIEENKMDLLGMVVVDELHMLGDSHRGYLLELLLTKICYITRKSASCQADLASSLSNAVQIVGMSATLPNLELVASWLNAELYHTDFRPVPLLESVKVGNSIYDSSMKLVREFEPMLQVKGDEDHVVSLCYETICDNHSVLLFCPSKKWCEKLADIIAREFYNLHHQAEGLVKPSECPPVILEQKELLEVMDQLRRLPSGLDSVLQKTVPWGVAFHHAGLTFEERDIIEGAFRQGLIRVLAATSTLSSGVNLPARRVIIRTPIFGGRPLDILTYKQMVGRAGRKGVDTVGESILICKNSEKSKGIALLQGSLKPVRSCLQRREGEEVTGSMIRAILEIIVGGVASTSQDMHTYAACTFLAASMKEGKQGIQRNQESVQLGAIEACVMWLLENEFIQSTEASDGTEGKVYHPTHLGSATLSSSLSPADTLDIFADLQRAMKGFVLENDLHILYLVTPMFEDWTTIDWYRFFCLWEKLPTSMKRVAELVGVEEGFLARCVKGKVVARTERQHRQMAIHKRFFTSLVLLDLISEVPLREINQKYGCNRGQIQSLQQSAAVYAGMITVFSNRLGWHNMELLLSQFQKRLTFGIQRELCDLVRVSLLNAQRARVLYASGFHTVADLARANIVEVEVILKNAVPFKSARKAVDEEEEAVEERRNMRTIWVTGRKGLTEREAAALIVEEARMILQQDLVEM
Field: label. Allowed values: Fulfilled (IC50 < 0.4 nM) or Not fulfilled (IC50 >= 0.4 nM).

Use these answered entries as a reference point.
COc1cnc(C(F)F)cc1-c1cc(-n2ccc(C)cc2=O)ncc1C(=O)Nc1nnc(C2CC2)s1 [Compound 532]; Not fulfilled
C#C[C@H]1C[C@@H]1c1nnc(NC(=O)c2cnc(-n3ccc(CO)cc3=O)cc2-c2cc(C(F)F)ncc2OC)s1 [Compound 571]; Fulfilled
COc1cnc(C(F)(F)F)cc1-c1cnccc1C(=O)Nc1nnc(C2C[C@H]2c2ccc(C#N)cc2)s1 (some centres unmarked) [Compound 90]; Not fulfilled
COc1cnc(C(F)F)cc1-c1cc(C2C[C@@H]2C(=O)N(C)C)ccc1C(=O)Nc1nnc(C#CC2CC2)s1 (mixture of isomers) [Compound 362]; Not fulfilled
COc1cnc(C(F)F)cc1-c1cc(C#CCN2CCCC2=O)ncc1C(=O)Nc1nnc([C@H]2C[C@@H]2c2cscn2)s1 (racemic) [Compound 641]; Fulfilled
COc1cnc(C(F)F)cc1-c1cc(-n2ccc(N)cc2=O)ncc1C(=O)Nc1nnc(C#CC2CC2)s1 [Compound 488]; Fulfilled
C#C[C@@H]1CC1c1nnc(NC(=O)c2cnc(-n3ccc(C)cc3=O)cc2-c2cc(C(F)F)ncc2OC)s1 (single isomer, unassigned) [Compound 480]; Not fulfilled
COc1ncc(-c2cc(-c3cc(C(F)F)ncc3OC)c(C(=O)Nc3nnc(C#CC4CC4)s3)cn2)cn1 [Compound 533]; Not fulfilled
C#C[C@H]1C[C@@H]1c1nnc(NC(=O)c2cnc(-n3ccc(N4CC5(COC5)C4)cc3=O)cc2-c2cc(C(F)F)ncc2OC)s1 [Compound 627]; Fulfilled
COc1cnc(C(F)F)cc1-c1cc(-n2ccc(C(=O)O)cc2=O)ncc1C(=O)Nc1nnc(C#CC2CC2)s1 [Compound 495]; Fulfilled

Lab note: IC50 threshold 0.4 nM. Does this compound come in strictly under it? COc1cnc(C(F)F)cc1-c1cc(-n2ccc(N(C)C)cc2=O)ncc1C(=O)Nc1nnc(C#CC2CC2)s1 [Compound 537]
Not fulfilled

Now consider COc1cnc(C(F)F)cc1-c1cc(-n2ccc(C)cc2=O)ncc1C(=O)Nc1nnc([C@H]2C[C@@H]2c2ccc(C#N)cc2)s1 [Compound 563] .
Fulfilled

Now consider COCc1nnc(NC(=O)c2cnc(-n3ccc(C)cc3=O)cc2-c2cc(C(F)F)ncc2OC)s1 [Compound 602] .
Not fulfilled

---

biological target: PolQ ATPase enzyme (1-894) (Homo sapiens (Human)); assay: Polθ ATPase enzymatic assay (0.5 nM enzyme concentration), ADP-Glo; type: biochemical; settings: 0.5 nM PolQ ATPase enzyme (1-894); average IC50
For each entry below, report its IC50 value.
Give bare numbers, in nM.

Field: example entries. Status: answers known.
C#C[C@H]1C[C@@H]1c1nnc(NC(=O)c2cnc(-n3ccc(Cl)cc3=O)cc2-c2cc(C(F)F)ncc2OC)s1 [Compound 624]; 1.1
COc1cnc(C(F)F)cc1-c1cc(-n2ccc(C)cc2=O)ncc1C(=O)Nc1nnc([C@H]2C[C@@H]2c2ccnn2C)s1 (racemic) [Compound 582]; 1.3
COc1cnc(Cl)cc1-c1cnccc1C(=O)Nc1nnc(C2C[C@H]2c2ccc(C#N)c(C)c2)s1 (stereo partly shown) [Compound 287]; 0.93

# input for lookup
What does the data say about its IC50? Entry: C#C[C@H]1CC1c1nnc(NC(=O)c2cnc(-n3ccc(OC)cc3=O)cc2-c2cc(C(F)F)ncc2OC)s1 (single isomer, unassigned) [Compound 629]
1
